Taken from ChEMBL document CHEMBL5038679.

Listed compounds paired with reported Papp B→A
assay-method-text: in vitro
protocol-conditions: dog, MDCK-MDR1
Description: Apparent permeability in dog MDCK-MDR1 cells from basal to apical side measured after 30 to 120 mins by LC-MS analysis
# number only, unit ×10⁻⁶ cm/s dropped from output

• CN1CC[C@@]23CCCC[C@@H]2[C@@H]1Cc1ccc(C(C)(F)F)cc13 = 0.833

Exam item: Look up Papp B→A for this compound: `CN1CC[C@@]23CCCC[C@@H]2[C@@H]1Cc1ccc(C(F)(F)F)cc13`
Marked response: 0.915

Exam item: Next up: `CN1CC[C@@]23CCCC[C@@H]2[C@@H]1Cc1ccc(OC(F)(F)F)cc13`
Marked response: 1.12

###

assay-method-text: Efflux ratio of apparent permeability across basolateral to apical side over apical to basolateral side in dog MDCK-MDR1 cells measured after 30 to 120 mins by LC-MS analysis
Type: ADME, cell-based, Canis lupus familiaris
protocol-conditions: time 30-120 min
Under this convention, label 1 denotes efflux ratio strictly below 0.8 and label 0 denotes efflux ratio at or above 0.8.

// below: answered compounds
• CN1CC[C@@]23CCCC[C@@H]2[C@@H]1Cc1ccc(C(F)(F)C(F)(F)F)cc13 = label 0
• CN1CC[C@@]23CCCC[C@@H]2[C@@H]1Cc1ccc(OC(F)(F)F)cc13 = label 0

Exam item: Record `CN1CC[C@@]23CCCC[C@@H]2[C@@H]1Cc1ccc(C(C)(F)F)cc13` : is its efflux ratio strictly below 0.8?
Marked response: label 0

Exam item: Next up: `CN1CC[C@@]23CCCC[C@@H]2[C@@H]1Cc1ccc(C(F)(F)F)cc13`
Marked response: label 1

Exam item: Next up: `CN1CC[C@@]23CCCC[C@@H]2[C@@H]1Cc1ccc(OC(F)F)cc13`
Marked response: label 1

###

Listed compounds paired with reported Vd
assay-method-text: Volume of distribution in Sprague-Dawley rat at 2.5 mg/kg, po measured after 24 hrs by LC-MS/MS analysis
Assay type: ADME, organism-based
protocol-conditions: in vivo
# number only, unit L/kg dropped from output

// below: answered compounds
• COc1ccc2c(c1)[C@@]13CCCC[C@@H]1[C@@H](C2)N(C)CC3 = 589
• [2H]C([2H])([2H])N1CC[C@@]23CCCC[C@@H]2[C@@H]1Cc1ccc(OC(F)(F)F)cc13 = 43
• [2H]C([2H])([2H])N1CC[C@@]23CCCC[C@@H]2[C@@H]1Cc1ccc(C(F)F)cc13 = 31

Exam item: Look up Vd for this compound: `CN1CC[C@@]23CCCC[C@@H]2[C@@H]1Cc1ccc(C(F)F)cc13`
Marked response: 85

Exam item: Next up: `CN1CC[C@@]23CCCC[C@@H]2[C@@H]1Cc1ccc(OC(F)(F)F)cc13`
Marked response: 77

###

assay-method-text: Aqueous solubility of compound in universal buffer at pH 7.4 at 100 uM incubated for 1.5 hrs under shaking condition by LC-MS/MS analysis
Format: physicochemical
Listed molecules paired with reported solubility at 1.5 h, 100 µM
# number only, unit µM dropped from output

// below: answered molecules
* [2H]C([2H])([2H])N1CC[C@@]23CCCC[C@@H]2[C@@H]1Cc1ccc(OC(F)F)cc13 | 101
* [2H]C([2H])([2H])Oc1ccc2c(c1)[C@@]13CCCC[C@@H]1[C@@H](C2)N(C([2H])([2H])[2H])CC3 | 112
* [2H]C([2H])([2H])N1CC[C@@]23CCCC[C@@H]2[C@@H]1Cc1ccc(C(C)(F)F)cc13 | 95

Field: next molecule
Exam item: Look up solubility at 1.5 h, 100 µM for this molecule: `[2H]C([2H])([2H])N1CC[C@@]23CCCC[C@@H]2[C@@H]1Cc1ccc(C(F)(F)F)cc13`
Marked response: 95

###

assay-method-text: in vitro
protocol-conditions: human, liver microsomes
Listed molecules paired with reported CLint scaled at 2 h, 10 µM
# number only, unit mL/min/kg dropped from output

// below: answered molecules
• [2H]C([2H])([2H])N1CC[C@@]23CCCC[C@@H]2[C@@H]1Cc1ccc(C(F)F)cc13 = 10.2
• [2H]C([2H])([2H])Oc1ccc2c(c1)[C@@]13CCCC[C@@H]1[C@@H](C2)N(C([2H])([2H])[2H])CC3 = 4.72
• CN1CC[C@@]23CCCC[C@@H]2[C@@H]1Cc1ccc(C(F)F)cc13 = 5.13

Exam item: Look up CLint scaled at 2 h, 10 µM for this molecule: `[2H]C([2H])([2H])N1CC[C@@]23CCCC[C@@H]2[C@@H]1Cc1ccc(C(F)(F)F)cc13`
Marked response: 15.4

Exam item: Next up: `[2H]C([2H])([2H])N1CC[C@@]23CCCC[C@@H]2[C@@H]1Cc1ccc(OC(F)(F)F)cc13`
Marked response: 7.81

Exam item: Next up: `[2H]C([2H])([2H])N1CC[C@@]23CCCC[C@@H]2[C@@H]1Cc1ccc(OC(F)F)cc13`
Marked response: 13.2

Exam item: Next up: `[2H]C([2H])([2H])N1CC[C@@]23CCCC[C@@H]2[C@@H]1Cc1ccc(C(F)(F)C(F)(F)F)cc13`
Marked response: 10

Exam item: Next up: `CN1CC[C@@]23CCCC[C@@H]2[C@@H]1Cc1ccc(C(F)(F)F)cc13`
Marked response: 6.48

Exam item: Next up: `CN1CC[C@@]23CCCC[C@@H]2[C@@H]1Cc1ccc(C(F)(F)C(F)(F)F)cc13`
Marked response: 14.4

###

assay-method-text: Unbound brain-to-plasma concentration ratio in Sprague-Dawley rat
Assay type: ADME, cell-free
protocol-conditions: read-out: K(p,uu,brain)
reported-property: Kp uu at 20 µM
Answer as a number with no unit attached.

// below: answered compounds
* [2H]C([2H])([2H])N1CC[C@@]23CCCC[C@@H]2[C@@H]1Cc1ccc(OC(F)(F)F)cc13 | 1.2
* [2H]C([2H])([2H])Oc1ccc2c(c1)[C@@]13CCCC[C@@H]1[C@@H](C2)N(C([2H])([2H])[2H])CC3 | 10.8
* COc1ccc2c(c1)[C@@]13CCCC[C@@H]1[C@@H](C2)N(C)CC3 | 27.9

Exam item: Look up Kp uu at 20 µM for this compound: `[2H]C([2H])([2H])N1CC[C@@]23CCCC[C@@H]2[C@@H]1Cc1ccc(C(F)F)cc13`
Marked response: 4.1

Exam item: Next up: `CN1CC[C@@]23CCCC[C@@H]2[C@@H]1Cc1ccc(C(F)F)cc13`
Marked response: 7.8

Exam item: Next up: `CN1CC[C@@]23CCCC[C@@H]2[C@@H]1Cc1ccc(OC(F)(F)F)cc13`
Marked response: 3.3

###

assay-method-text: in vitro
protocol-conditions: human, liver microsomes
reported-property: CLint scaled at 2 h, 10 µM (mL/min/kg)
# number only, unit mL/min/kg dropped from output

• CN1CC[C@@]23CCCC[C@@H]2[C@@H]1Cc1ccc(OC(F)F)cc13 = 4.94
• [2H]C([2H])([2H])N1CC[C@@]23CCCC[C@@H]2[C@@H]1Cc1ccc(C(C)(F)F)cc13 = 5.39
• CN1CC[C@@]23CCCC[C@@H]2[C@@H]1Cc1ccc(OC(F)(F)F)cc13 = 5.66
• CN1CC[C@@]23CCCC[C@@H]2[C@@H]1Cc1ccc(C(C)(F)F)cc13 = 8.42

Field: next compound
Exam item: Look up CLint scaled at 2 h, 10 µM for this compound: `COc1ccc2c(c1)[C@@]13CCCC[C@@H]1[C@@H](C2)N(C)CC3`
Marked response: 6.09

###

assay-method-text: in vitro
protocol-conditions: dog, MDCK-MDR1
Description: Apparent permeability in dog MDCK-MDR1 cells from apical to basal side measured after 30 to 120 mins by LC-MS analysis
reported-property: Papp A→B (×10⁻⁶ cm/s)
# number only, unit ×10⁻⁶ cm/s dropped from output

- CN1CC[C@@]23CCCC[C@@H]2[C@@H]1Cc1ccc(OC(F)(F)F)cc13: 0.989

Exam item: Look up Papp A→B for this molecule: `COc1ccc2c(c1)[C@@]13CCCC[C@@H]1[C@@H](C2)N(C)CC3`
Marked response: 1.48

Exam item: Next up: `CN1CC[C@@]23CCCC[C@@H]2[C@@H]1Cc1ccc(OC(F)F)cc13`
Marked response: 1.28

Exam item: Next up: `CN1CC[C@@]23CCCC[C@@H]2[C@@H]1Cc1ccc(C(F)(F)C(F)(F)F)cc13`
Marked response: 0.831

###

assay-method-text: Half life in Sprague-Dawley rat brain at 2.5 mg/kg, po measured after 24 hrs by LC-MS/MS analysis
Format: ADME, organism-based
reported-property: half-life (h)
# number only, unit h dropped from output

- CN1CC[C@@]23CCCC[C@@H]2[C@@H]1Cc1ccc(C(F)F)cc13: 2.57
- COc1ccc2c(c1)[C@@]13CCCC[C@@H]1[C@@H](C2)N(C)CC3: 2.07
- [2H]C([2H])([2H])N1CC[C@@]23CCCC[C@@H]2[C@@H]1Cc1ccc(OC(F)(F)F)cc13: 3.03
- [2H]C([2H])([2H])N1CC[C@@]23CCCC[C@@H]2[C@@H]1Cc1ccc(C(F)F)cc13: 1.62
- [2H]C([2H])([2H])Oc1ccc2c(c1)[C@@]13CCCC[C@@H]1[C@@H](C2)N(C([2H])([2H])[2H])CC3: 4.9

Exam item: Look up half-life for this compound: `CN1CC[C@@]23CCCC[C@@H]2[C@@H]1Cc1ccc(OC(F)(F)F)cc13`
Marked response: 3.18
